test system: MDA-MB-231; assay: cells; details: Homo sapiens, MDA-MB-231, 72 h
Description: Antiproliferative activity against human MDA-MB-231 cells assessed as reduction in cell viability measured after 72 hrs by Cell Counting Kit-8 assay
reported-property: IC50 (µM)

Answered examples (10):
{"compound": "CC/C(=C(\\c1ccc(O)cc1)c1ccc(OCCN(C)C)cc1)c1ccccc1", "scale-unit": "µM", "IC50": 18.4}
{"compound": "O=S(=O)(Oc1ccc(Cl)cc1)C1CC2OC1C(c1ccc([Se]c3ccccc3)cc1)=C2c1ccc(O)cc1 (configuration not stated)", "scale-unit": "µM", "IC50": 11}
{"compound": "O=S(=O)(Oc1ccc(Br)cc1)C1CC2OC1C(c1ccc([Se]c3ccccc3)cc1)=C2c1ccc(O)cc1 (configuration not stated)", "scale-unit": "µM", "IC50": 18.3}
{"compound": "Cc1ccc(OS(=O)(=O)C2CC3OC2C(c2ccc(O)cc2)=C3c2ccc([Se]c3ccccc3)cc2)cc1 (configuration not stated)", "scale-unit": "µM", "IC50": 8.05}
{"compound": "O=S(=O)(Oc1cccc([Se]c2ccccc2)c1)C1CC2OC1C(c1ccc(O)cc1)=C2c1ccc(O)cc1 (configuration not stated)", "scale-unit": "µM", "IC50": 25.6}
{"compound": "Cc1cccc(OS(=O)(=O)C2CC3OC2C(c2ccc([Se]c4ccccc4)cc2)=C3c2ccc(O)cc2)c1 (configuration not stated)", "scale-unit": "µM", "IC50": 12.6}
{"compound": "COc1cccc(OS(=O)(=O)C2CC3OC2C(c2ccc(O)cc2)=C3c2ccc([Se]c3ccccc3)cc2)c1 (configuration not stated)", "scale-unit": "µM", "IC50": 10.5}
{"compound": "COc1ccc(OS(=O)(=O)C2CC3OC2C(c2ccc([Se]c4ccccc4)cc2)=C3c2ccc(O)cc2)cc1 (configuration not stated)", "scale-unit": "µM", "IC50": 9.71}
{"compound": "O=S(=O)(Oc1cccc(C(F)(F)F)c1)C1CC2OC1C(c1ccc([Se]c3ccccc3)cc1)=C2c1ccc(O)cc1 (configuration not stated)", "scale-unit": "µM", "IC50": 16.8}
{"compound": "Cc1ccc(OS(=O)(=O)C2CC3OC2C(c2ccc([Se]c4ccccc4)cc2)=C3c2ccc(O)cc2)cc1 (configuration not stated)", "scale-unit": "µM", "IC50": 8.49}

[P] O=S(=O)(Oc1cccc2ccccc12)C1CC2OC1C(c1ccc(O)cc1)=C2c1ccc([Se]c2ccccc2)cc1 (configuration not stated)
[Q] O=S(=O)(Oc1ccc(O)cc1)C1CC2OC1C(c1ccc(O)cc1)=C2c1ccc([Se]c2ccccc2)cc1 (configuration not stated)
[R] O=S(=O)(Oc1cccc(Br)c1)C1CC2OC1C(c1ccc([Se]c3ccccc3)cc1)=C2c1ccc(O)cc1 (configuration not stated)
Given 3 compounds, produce a descending ranking by IC50. Arrange the labels as the request states and list them.
P, R, Q

Reference for the values: ChEMBL document CHEMBL5154927
